Where these numbers come from: ChEMBL document CHEMBL3124778

testName: Apparent volume of distribution in BALB/c mouse at 5 mg/kg, iv
Type: ADME, organism-based
Parameters: dose 5 mg/kg, route intravenous
runParameters: in vivo, read-out: Vz
experimentalEndpoint: Vd (L/kg)
The answer is to be given in L/kg; state only the numeric part.

Exercise: Return reported Vd. Input compound: Cc1cc2nc(-c3nccs3)n(-c3ccc4c(N)nc(N)nc4c3)c2cc1C
Key: 4.4

---

System: Streptococcus pneumoniae
testName: Antibacterial activity against Streptococcus pneumoniae ATCC 700669 after 18 to 24 hrs by alamar Blue assay
Format: functional
experimentalEndpoint: MIC (µg/mL)
The answer is to be given in µg/mL; state only the numeric part.

[[record]]
compound = "Cc1cc2nc(-c3nccs3)n(-c3ccc4c(N)nc(N)nc4c3)c2cc1C"
valuemeasured = 8

[[record]]
compound = "COc1cc(Cc2cnc(N)nc2N)c2c(c1OC)OC(C1CC1)C=C2 (stereo unspecified)"
valuemeasured = 8

[[record]]
compound = "Cc1cc2nc(-c3nccs3)n(-c3cc4nc(N)nc(N)c4cc3Cl)c2cc1C"
valuemeasured = 4


Exercise: Return reported MIC. Input compound: Cc1cc2nc(-c3cccs3)n(-c3ccc4c(N)nc(N)nc4c3)c2cc1C
Key: 4

Exercise: Return reported MIC. Input compound: Cc1cc2nc(-c3cccs3)n(-c3cc4nc(N)nc(N)c4cc3Cl)c2cc1C
Key: 2
